Biological target: human CD137 on primary human CD8+ T cells (human, UniProt Q07011 24-255)
Sequence (Q07011 24-255): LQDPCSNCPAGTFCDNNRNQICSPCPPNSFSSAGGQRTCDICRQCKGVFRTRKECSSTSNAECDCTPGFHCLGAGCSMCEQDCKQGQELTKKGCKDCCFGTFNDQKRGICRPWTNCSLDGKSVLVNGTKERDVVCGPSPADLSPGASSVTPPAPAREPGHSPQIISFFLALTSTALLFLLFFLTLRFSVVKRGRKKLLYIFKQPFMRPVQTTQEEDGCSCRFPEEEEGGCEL
Assay: cell-based or functional assay
quantity-kind: Activity of non-crosslinked mAbs at 100 nM (hIL-2 pg/ml) (pg/mL)

- binder: "G1AA/FS30-10 (antibody, human IgG1, kappa, L234A L235A, V domains shown, human IgG1 with LALA mutation in CH2; also called FS30-10 mAb) VH: EVQLLESGGGLVQPGGSLRLSCAASGFTFSSYDMSWVRQAPGKGLEWVSDIDPTGSKTDYADSVKGRFTISRDNSKNTLYLQMNSLRAEDTAVYYCARDLMVYGFDYWGQGTLVTVSS VL: EIVLTQSPGTLSLSPGERATLSCRASQSVSSSYLAWYQQKPGQAPRLLIYGASSRATGIPDRFSGSGSGTDFTLTISRLEPEDFAVYYCQQSYSYPVTFGQGTKVEIKR"
  quantitative-readout: 497
